# PROTOCOL: inhibitors of TNFa-induced NFkB p65 translocation, primary screen, imaging, HUVEC, MLSMR starter and 10KST1 sets (AID 438);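 further: compound added about 3h40 before a 20 min TNFalpha stimulation; signal is the nuclear over cytoplasmic p65 intensity ratio per well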
# TEST_CONTEXT: HUVEC TNFa-induced p65 nuclear translocation; at 2 µM, stronger effect = higher value, 0% TNFa-plus-vehicle, 100% no-TNFa wells
This listing pairs molecules with measured inhibition.

# MOLECULE, inhibition / %
measured = [
    ("CCCCCCC(=O)N1CCN(c2cc3c(cc2F)c(=O)c(C(=O)O)cn3CC)CC1", 6),
    ("Cc1csc(NC(=O)CSc2nsc(SCC(=O)Nc3nc(C)cs3)c2C#N)n1", -10.4),
    ("N#CC1=C(SCC(=O)c2ccc(Br)cc2)NC2=C(C(=O)CCC2)C1c1ccco1 (stereo unspecified)", -10.4),
    ("Nc1nc(NC(=O)Cc2ccccc2)nn1-c1ccccc1", -5.8),
    ("O=C(O)c1cc(O)c2c(c1)C(=O)c1cccc(O)c1C2=O", -3),
    ("O=C(O)CCNC(=O)c1ccccc1", -4.9),
    ("Cn1cc(Br)cc2nc(C(F)(F)F)nc1-2", -11.2),
    ("Cc1cc(N2C(=O)C(=O)/C(=C(/O)c3ccccc3)C2c2cccc(Br)c2)no1 (stereo unspecified)", -10.2),
    ("O=C1C=C(O)CC(c2ccco2)C1 (stereo unspecified)", 5.7),
    ("COc1ccccc1C(=O)N1CCCC1(C#N)c1ccccc1 (stereo unspecified)", 1.8),
    ("C=CCn1c(N)c(C(=O)OC(C)(C)C)c2nc3ccccc3nc21", -11.7),
]
